These data points were gathered from patent US20230142274A1.

method.description: Pharmacokinetic experiment in mouse
Format: in vivo
test.context: mouse, plasma; female CB17-SCID mice, oral dose 30 mg/kg; read-out: Drug Elimination Half-life (converted)
outcome.measure: half-life

I am curious: what half-life value has been reported for Cc1cc(Nc2ccc(-c3cnc([C@H]4CC[C@H](NC(=O)OC(C)C)CC4)s3)c(S(=O)(=O)C3CC3)c2)n[nH]1 ?
7.6 h
